All figures here come from patent US20230348603A1.

target: T1, Human VSIG4-L-Fc (human); assay: BLI binning on hVSIG4-L-Fc, competitor 14C05 first;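 also: normalized to binding of second antibody without first competitor antibody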
T1 construct: also called hVSIG4-L-Fc; hVSIG4-L
T1 sequence (chain, as listed by the source limits assumed): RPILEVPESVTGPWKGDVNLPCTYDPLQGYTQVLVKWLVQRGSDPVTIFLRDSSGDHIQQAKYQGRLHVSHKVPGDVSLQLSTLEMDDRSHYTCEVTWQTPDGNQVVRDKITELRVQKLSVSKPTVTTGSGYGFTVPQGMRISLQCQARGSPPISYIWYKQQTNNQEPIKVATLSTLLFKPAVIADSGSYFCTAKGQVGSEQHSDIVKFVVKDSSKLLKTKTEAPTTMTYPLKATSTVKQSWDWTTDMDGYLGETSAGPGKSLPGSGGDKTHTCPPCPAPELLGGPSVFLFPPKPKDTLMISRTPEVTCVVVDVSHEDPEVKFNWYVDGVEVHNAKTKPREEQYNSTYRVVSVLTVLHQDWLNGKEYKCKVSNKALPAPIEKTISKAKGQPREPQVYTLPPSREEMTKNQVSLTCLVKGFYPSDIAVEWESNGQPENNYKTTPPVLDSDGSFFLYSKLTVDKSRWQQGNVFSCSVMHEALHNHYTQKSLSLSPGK
Reported normalized maximum binding nm shift is given for each of the following binders.

| binder | normalized maximum binding nm shift [normalized] |
| --- | --- |
| 15A06 mouse/human chimeric IgG4 (S228P) kappa (antibody, V domains shown) VH: QVQMKQSGPSLVRPSQTLSLTCSVTGDSITSGYWNWIRKFPGDKFEYLGYISYSGFTYYNPSLKSRVSITRDTSKNQYYLQLHSVTTEDTATYYCASSKYGSSLGFPYWGQGTLVTVSA VL: DVVMTQTPLSLPVSLGDQASISCRSSQSLVHSNGNTYLHWYLQKPGQSPKLLIYKVSNRFSGVPDRFSGSGSGTDFTLKISRVEAEDLGVYFCSQSTHVPFTFGSGTKLEIKR | 0.8 |
| 13H11 mouse/human chimeric IgG4 (S228P) kappa (antibody, V domains shown) VH: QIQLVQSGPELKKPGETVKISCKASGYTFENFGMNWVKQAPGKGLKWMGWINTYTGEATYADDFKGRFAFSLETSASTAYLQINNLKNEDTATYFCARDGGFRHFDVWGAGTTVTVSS VL: ETTVTQSPASLSVATGEKVTIRCITSTDIDDDMNWYQQKPGEPPKLLISEGNTLRPGVPSRFSSSGYGTDFVFTIENMLSEDVADYYCLQSDNLPLTFGAGTKLELKR | 0.74 |
| 16E10 mouse/human chimeric IgG4 (S228P) kappa (antibody, V domains shown) VH: QVQLQQSGAELVRPGTSVKISCKASGYTFTNYWLGWVKQRPGHGLEWIGDIYPGGGYTNYNEKFKGKATLTADTSSSTAYMQLSSLTSEDSAVYFCAKFYYYGSSYYFDSWGQGTTLTVSS VL: DIVLTQSPSSLSVSAGEKVTLSCKSSQSLLNSGNQENYLAWYQQKPGQPPKLLIYGASTRESGVPDRFTGSGSGTDFTLTISSVQAEDLAVYYCQNDHSYPLTFGAGTKLELKR | 0.74 |
| 12A08 mouse/human chimeric IgG4 (S228P) kappa (antibody, V domains shown) VH: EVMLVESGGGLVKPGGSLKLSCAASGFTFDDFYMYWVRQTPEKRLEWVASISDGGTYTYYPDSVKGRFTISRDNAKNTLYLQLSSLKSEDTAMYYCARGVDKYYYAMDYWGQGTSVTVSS VL: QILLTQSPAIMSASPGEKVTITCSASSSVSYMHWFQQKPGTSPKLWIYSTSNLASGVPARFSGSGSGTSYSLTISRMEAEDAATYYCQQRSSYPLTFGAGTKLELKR | 0.72 |
| 15C04 mouse/human chimeric IgG4 (S228P) kappa (antibody, V domains shown) VH: QIQLQESGPSLVRPSQTLSLTCSVTGDSITSGYWNWIRKFPGDKLEYLGYISYSGFTYYNPSLKSRISITRDTSKNQYYLQLNSVTTEDTATYYCASSYYGSSLGFPYWGQGTLVTVSA VL: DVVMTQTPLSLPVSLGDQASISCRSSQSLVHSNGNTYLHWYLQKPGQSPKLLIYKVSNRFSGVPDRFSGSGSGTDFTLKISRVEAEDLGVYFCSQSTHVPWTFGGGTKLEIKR | 0.72 |
| 16E03 mouse/human chimeric IgG4 (S228P) kappa (antibody, V domains shown) VH: QVQLQQSGAELARPGASVKMSCKASGYTFTSYTMHWIKQRPGQGLEWIGYINPSSGHTYYNQKFKDKATLTPDKSSSTAYMQLTSLTSEDSAVYYCARRIPTAYAMDYWGQGTSVTVSS VL: EIQMTQSHKFMSTSVGDRVSITCKASQDVGTAVAWYQQKPGQSPKLLIYWASTRHTGVPDRFTGSGSGTDFTLTISNVQSEDLADYFCQQYSSYPLTFGAGTKLELKR | 0.78 |
| 14D12 mouse/human chimeric IgG4 (S228P) kappa (antibody, V domains shown) VH: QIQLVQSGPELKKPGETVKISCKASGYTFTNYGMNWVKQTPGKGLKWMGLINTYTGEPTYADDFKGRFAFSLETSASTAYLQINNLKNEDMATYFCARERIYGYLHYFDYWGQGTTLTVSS VL: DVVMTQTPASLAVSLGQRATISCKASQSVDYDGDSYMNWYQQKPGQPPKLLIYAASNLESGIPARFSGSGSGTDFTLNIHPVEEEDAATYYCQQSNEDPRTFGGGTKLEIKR | 0.12 |
| 15C03 mouse/human chimeric IgG4 (S228P) kappa (antibody, V domains shown) VH: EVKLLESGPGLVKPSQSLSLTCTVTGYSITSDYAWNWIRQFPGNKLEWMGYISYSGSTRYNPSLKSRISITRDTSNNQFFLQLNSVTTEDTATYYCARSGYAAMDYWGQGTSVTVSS VL: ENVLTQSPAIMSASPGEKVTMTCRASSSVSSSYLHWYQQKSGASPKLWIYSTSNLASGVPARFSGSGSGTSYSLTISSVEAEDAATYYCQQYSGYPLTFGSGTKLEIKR | 0.44 |
| 12A12 mouse/human chimeric IgG4 (S228P) kappa (antibody, V domains shown) VH: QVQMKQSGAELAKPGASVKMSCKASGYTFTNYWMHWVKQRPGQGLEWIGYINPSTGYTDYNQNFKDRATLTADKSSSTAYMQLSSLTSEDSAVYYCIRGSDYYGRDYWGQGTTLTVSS VL: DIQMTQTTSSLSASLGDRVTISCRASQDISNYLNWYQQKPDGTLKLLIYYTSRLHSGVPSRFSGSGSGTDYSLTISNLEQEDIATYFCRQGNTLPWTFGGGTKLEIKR | 0.72 |
